Taken from a melting point compilation (Tetko et al.; mined from patent text by program, amines drawn as free bases though some values may be those of a salt).

# melting point listing for each entry below
Assay readout: melting point

Molecule | Recorded measurement
CC(=O)NC[C@H]1CN(c2ccc(-n3nccc3-c3ccc(F)cc3)c(F)c2)C(=O)O1 | 111 to 113 °C
Cc1cc(CC(=O)O)n(C)c1C(=O)c1ccc(Cl)cc1Cl | 140 to 143 °C
CCCCCCCCCCCCCCCCCC(=O)c1ccc(C(=O)O)c(Cl)c1 | 96 to 102 °C
CCC(CC)c1ccc(Cl)c2nc3n(c12)CCCCN3c1ccc(C(F)(F)F)cc1Br | 158 to 160 °C
Brc1cc(N2CCOCC2)ccc1/C=C/c1cc(/C=C/c2ccc3cc[nH]c3c2)[nH]n1 | 143 to 148 °C
CCC(=N)c1c(O)cc(-c2ccccc2)n(C)c1=O | 145 to 147 °C
Cc1ccccc1C1CC(=O)c2c(C)c[nH]c2C1 (stereo unspecified) | 190 to 191 °C
N#CC(c1ccc(C(F)(F)F)cc1)N1CCOCC1 (stereo unspecified) | 89 to 90 °C
CC1Cc2ccccc2CN(CCC(N)=O)C1=O (stereo unspecified) | 168 to 169 °C
CC1(C)OC(=O)Nc2ccc(-c3cc(F)cc(Br)c3)cc21 | 182 to 183 °C
Fc1ccc2c(N3CCN(CCCCn4cc5ccccc5c4)CC3)csc2c1 | 118 to 120 °C

* * *

Form field: melting point (one value per entry).
Assay readout: melting point

Compound | Assay readout | Recorded measurement
CCC(=O)Nc1ccc(NC(=O)CN2CCN(CCCCC(c3ccc(F)cc3)c3ccc(F)cc3)C(C(N)=O)C2)c(C(C)=O)c1 (stereo unspecified) | melting point | 163 °C
CCSC(=O)n1c(=NC(=O)N(C)C)sc2ccccc21 | melting point | 138 °C
CCOC(=O)C1=C(C)NC(C)=C(C(=O)OCCN2CCC(C(c3ccccc3)c3ccccc3)CC2)C1c1cccc(Cl)c1Cl (stereo unspecified) | melting point | 81 to 85 °C
CC1(C)Sc2oc(S(N)(=O)=O)cc2C1=O | melting point | 167 to 169 °C
CCOC(=O)NNc1ccc(N(C)CC(C)O)nn1 (stereo unspecified) | melting point | 150 to 152 °C
N=c1[nH]c2ccccc2c2nc(-c3ccco3)nn12 | melting point | 282 to 285 °C
CN(C)CCCNC(=O)c1cccc([N+](=O)[O-])c1Cl | melting point | 122 to 125 °C
CCN(CC)CCOc1ccc(C(=O)c2c(-c3ccccc3)oc3ccccc23)cc1 | melting point | 125 to 127 °C
CCCCc1oc2ccccc2c1C(=O)Nc1ccc2c(Br)c(OCC#N)ccc2c1 | melting point | 155 to 159 °C
CCCC(OC)c1ccc(Cl)c2nc3n(c12)CCCN3c1ccc(Cl)cc1Cl (stereo unspecified) | melting point | 139 to 140 °C
NC(=S)Cc1cccc(-c2nc(=O)c3ccccc3s2)n1 | melting point | 257 °C
c1ccc2c(c1)CNc1ccccc1S2 | melting point | 145 to 148 °C
O=C(O)[C@]1(c2ccc(Br)cc2)CC1(c1ccccc1)c1ccccc1 | melting point | 180 to 182 °C
O=c1ccc(-c2ccc(-c3ccc(=O)[nH]n3)cc2)n[nH]1 | melting point | > 250 °C
COc1ccc2ccc3nc(C(=O)O)cn3c2c1 | melting point | 272 to 273 °C
CC(C)(C)C(=O)NNc1ccc([N+](=O)[O-])cc1Br | melting point | 145 °C
O=C(O)CCC(=O)c1ccc(NC(=O)C2CC2)cc1 | melting point | 229 to 230 °C
CC(=O)Nc1nc(CCc2ccc(N)cc2)c(C(=O)Nc2ccccc2)s1 | melting point | 104 to 105 °C
Cc1nc2cc(Nc3nccc(-c4ccc(Cl)nc4)n3)ccc2s1 | melting point | 235 to 237 °C
O=C(O)c1ccc(C(F)(F)F)nc1C=CCCl | melting point | 137 to 138 °C
CCCc1[nH]c2cc(C(=O)O)ccc2c1C(=O)COC | melting point | > 250 °C
